This collection of values is drawn from patent US12521395B2.

Consider the following compounds; for each one, report its IC50.
SYSTEM_UNDER_TEST: IDH1^R132H (Homo sapiens, UniProt O75874, R132H)
Sequence (O75874 whole entry R132H): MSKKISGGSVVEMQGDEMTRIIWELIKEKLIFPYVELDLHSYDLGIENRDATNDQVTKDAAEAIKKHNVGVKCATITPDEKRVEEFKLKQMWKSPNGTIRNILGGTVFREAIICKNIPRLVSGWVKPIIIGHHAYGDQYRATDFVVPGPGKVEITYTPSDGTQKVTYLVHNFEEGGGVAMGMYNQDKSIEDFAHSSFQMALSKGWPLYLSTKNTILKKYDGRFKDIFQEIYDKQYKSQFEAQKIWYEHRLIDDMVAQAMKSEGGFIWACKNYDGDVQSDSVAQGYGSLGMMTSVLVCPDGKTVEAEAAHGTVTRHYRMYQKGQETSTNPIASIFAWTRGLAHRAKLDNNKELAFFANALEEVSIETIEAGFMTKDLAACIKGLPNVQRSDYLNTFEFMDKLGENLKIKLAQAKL
TEST_DETAILS: NADPH depletion assay (diaphorase/resazurin), IDH1 R132H
CONDITION_DESCRIPTION: 15 min preincubation, 60 min reaction, room temperature
Answer with a number only, understood to be in nM.

Summary line: C=CC(=O)N1CCN(C2(c3ccc([C@H](C)Nc4ncc5ccc(=O)n(C(C)C)c5n4)cc3)CCOCC2)CC1 [cpd 1] , IDH1^R132H (Homo sapiens, UniProt O75874, R132H), reported IC50 = 3.5

Summary line: C=CC(=O)N1CCN(C2(c3ccc([C@H](C)Nc4cc5c(ccc(=O)n5C(C)C)cn4)cc3)CCOCC2)CC1 [cpd 11] , IDH1^R132H (Homo sapiens, UniProt O75874, R132H), reported IC50 = 6.4

Summary line: C=CC(=O)N1CCN(C2(c3ccc([C@H](C)Nc4cc5c(ccc(=O)n5C(C)C)cn4)cc3)CCC(F)(F)CC2)CC1 [cpd 47] , IDH1^R132H (Homo sapiens, UniProt O75874, R132H), reported IC50 = 2

Summary line: C=CC(=O)N1CC(N(C)C2(c3ccc([C@H](C)Nc4ncc5ccc(=O)n(C(C)C)c5n4)cc3)CCC(F)(F)CC2)C1 [cpd 50] , IDH1^R132H (Homo sapiens, UniProt O75874, R132H), reported IC50 = 20

Summary line: C=CC(=O)N1CCN(C(CC)(CC)c2ccc([C@H](C)Nc3ncc4ccc(=O)n(C(C)C)c4n3)cc2)CC1 [cpd 4] , IDH1^R132H (Homo sapiens, UniProt O75874, R132H), reported IC50 = 3.8

Summary line: C=CC(=O)N1CCN(C2(c3ccc([C@H](C)Nc4ncc5ccc(=O)n(C(C)C)c5n4)cc3)CCC(F)(F)CC2)CC1 [cpd 26] , IDH1^R132H (Homo sapiens, UniProt O75874, R132H), reported IC50 = 3

Summary line: C=CC(=O)N1CCN(C2(c3ccc(C(C)(C)Nc4ncc5ccc(=O)n(C(C)C)c5n4)cc3)CCC(F)(F)CC2)CC1 [cpd 52] , IDH1^R132H (Homo sapiens, UniProt O75874, R132H), reported IC50 = 14

====

Consider the following compounds; for each one, report its IC50.
SYSTEM_UNDER_TEST: IDH1^R132C (Homo sapiens, UniProt O75874, R132C)
Sequence (O75874 whole entry R132C): as the sequence (O75874 whole entry R132H) above, with H132C counted along it
TEST_DETAILS: NADPH depletion assay (diaphorase/resazurin), IDH1 R132C
Assay type: biochemical
CONDITION_DESCRIPTION: IDH1^R132C 2 nM, alpha-ketoglutarate 0.14 mM; read-out: IDH1^R132C IC50
Reply with the number and its unit after it.

Sure, the documented IC50 for CCC(=O)N1CCN(C2(c3ccc([C@H](C)Nc4cc5c(ccc(=O)n5C(C)C)cn4)cc3)CCC(F)(F)CC2)CC1 [cpd 67] is 32 nM

Sure, the documented IC50 for C=CC(=O)N1CC(N(C(C)=O)C2(c3ccc([C@H](C)Nc4cc5c(ccc(=O)n5C(C)C)cn4)cc3)CCC(F)(F)CC2)C1 [cpd 62] is 2 nM

Sure, the documented IC50 for CC(C)n1c(=O)ccc2cnc(N[C@@H](C)c3ccc(C4(N5CCN(C(=O)CCl)CC5)CCOCC4)cc3)nc21 [cpd 22] is 8 nM

Sure, the documented IC50 for C=CC(=O)N1CC(N(C)C2(c3ccc([C@H](C)Nc4ncc5ccc(=O)n(C(C)C)c5n4)cc3)CCOCC2)C1 [cpd 28] is 26 nM

Sure, the documented IC50 for C=CC(=O)N1CCN(C2(c3ccc([C@@H](C)Nc4cc5c(ccc(=O)n5C(C)C)cn4)cc3)CCC(F)(F)CC2)CC1 [cpd 63] is 55 nM

Sure, the documented IC50 for C=CC(=O)NCC(=O)NC1(c2ccc([C@H](C)Nc3ncc4ccc(=O)n(C(C)C)c4n3)cc2)CCC(F)(F)CC1 [cpd 56] is 321 nM

Sure, the documented IC50 for C=CC(=O)N1CCN(C2(c3ccc(C(C)(C)Nc4ncc5ccc(=O)n(C(C)C)c5n4)cc3)CCOCC2)CC1 [cpd 40] is 18 nM

Sure, the documented IC50 for C=CC(=O)N1CCN(C2(c3ccc([C@H](C)Nc4ncc5ccc(=O)n(CC)c5n4)cc3)CCOCC2)CC1 [cpd 14] is 4.4 nM

Sure, the documented IC50 for CC(C)n1c(=O)ccc2cnc(N[C@@H](C)c3ccc(C4(N5CCN(C(=O)C(O)CO)CC5)CCC(F)(F)CC4)cc3)cc21 (stereo partly shown) [cpd 60] is 71 nM

Sure, the documented IC50 for CC(C)n1c(=O)ccc2cnc(N[C@@H](C)c3ccc(C4(N5CCN(C(=O)CCCl)CC5)CCOCC4)cc3)nc21 [cpd 23] is 1460 nM

====

SYSTEM_UNDER_TEST: IDH1^R132C (Homo sapiens, UniProt O75874, R132C)
TEST_DETAILS: NADPH depletion assay (diaphorase/resazurin), IDH1 R132C
Format: biochemical
CONDITION_DESCRIPTION: IDH1^R132C 2 nM, alpha-ketoglutarate 0.14 mM; read-out: IDH1^R132C IC50
Consider the following molecules; for each one, report its IC50.
Answer with a number only, understood to be in nM.

Sure, the documented IC50 for C=CC(=O)N[C@@H](C)C(=O)NC1(c2ccc([C@H](C)Nc3ncc4ccc(=O)n(C(C)C)c4n3)cc2)CCC(F)(F)CC1 [cpd 58] is 352

Sure, the documented IC50 for C=CC(=O)N1CCN(C2(c3ccc(C(C)(C)Nc4ncc5ccc(=O)n(C(C)C)c5n4)cc3)CCC(F)(F)CC2)CC1 [cpd 52] is 9

Sure, the documented IC50 for C=CC(=O)N1CCN(C(CC)(CC)c2ccc([C@H](C)Nc3ncc4ccc(=O)n(C(C)C)c4n3)cc2)CC1 [cpd 4] is 1.7

Sure, the documented IC50 for C=CC(=O)N1CCN(C2(c3ccc([C@H](C)Nc4ncc5ccc(=O)n(C(C)C)c5n4)cc3)CCN(C(C)=O)CC2)CC1 [cpd 6] is 5.9

====

SYSTEM_UNDER_TEST: IDH1^R132C (Homo sapiens, UniProt O75874, R132C)
TEST_DETAILS: NADPH depletion assay (diaphorase/resazurin), IDH1 R132C
Format: biochemical
CONDITION_DESCRIPTION: IDH1^R132C 2 nM, alpha-ketoglutarate 0.14 mM; read-out: IDH1^R132C IC50
Hi! Just check whether IC50 is below 0.009 µM. Below gives satisfied, equal or above gives not satisfied.

Report whether reported IC50 is lower than 0.009 µM (strictly) for `C=CC(=O)N1CC(N(C)C2(c3ccc([C@H](C)Nc4cc5c(ccc(=O)n5C(C)C)cn4)cc3)CCC(F)(F)CC2)C1`
satisfied

Report whether reported IC50 is lower than 0.009 µM (strictly) for `C=CC(=O)N1CCN(C2(c3ccc([C@H](C)Nc4ncc5ccc(=O)n(C(C)C)c5n4)cc3)CCOCC2)CC1`
satisfied

Report whether reported IC50 is lower than 0.009 µM (strictly) for C=CC(=O)N1CCN(C(C)(CC)c2ccc([C@H](C)Nc3ncc4ccc(=O)n(C(C)C)c4n3)cc2)CC1 (some centres unmarked)
not satisfied

Report whether reported IC50 is lower than 0.009 µM (strictly) for `C=CC(=O)N1CCN(C2(c3ccc(CNc4ncc5ccc(=O)n(C(C)C)c5n4)cc3)CCOCC2)CC1`
not satisfied

Report whether reported IC50 is lower than 0.009 µM (strictly) for `C=CC(=O)N1CCN(C2(c3ccc([C@H](C)Nc4ncc5ccc(=O)n(C(C)C)c5n4)cc3)CCC(F)(F)CC2)CC1`
satisfied

Report whether reported IC50 is lower than 0.009 µM (strictly) for `C=CC(=O)N1CCN(C(C)(C)c2ccc([C@H](C)Nc3ncc4ccc(=O)n(C(C)C)c4n3)cc2)CC1`
not satisfied

Report whether reported IC50 is lower than 0.009 µM (strictly) for `C=CC(=O)N1CCN(C2(c3ccc([C@H](C)Nc4ncc5ccc(=O)n(C(C)C)c5n4)cc3)CCCC2)CC1`
satisfied

Report whether reported IC50 is lower than 0.009 µM (strictly) for `C=CC(=O)N1CCN(C2(c3ccc([C@H](C)Nc4ncc5c(C)cc(=O)n(C(C)C)c5n4)cc3)CCOCC2)CC1`
not satisfied

Report whether reported IC50 is lower than 0.009 µM (strictly) for `C=CC(=O)N[C@H](C)C(=O)NC1(c2ccc([C@H](C)Nc3ncc4ccc(=O)n(C(C)C)c4n3)cc2)CCC(F)(F)CC1`
not satisfied

Report whether reported IC50 is lower than 0.009 µM (strictly) for `C=CC(=O)N1CCN(C2(c3ccc([C@@H](C)Nc4ncc5ccc(=O)n(C(C)C)c5n4)cc3)CCOCC2)CC1`
not satisfied

Report whether reported IC50 is lower than 0.009 µM (strictly) for `[2H]C([2H])=C([2H])C(=O)N1CCN(C2(c3ccc([C@H](C)Nc4ncc5ccc(=O)n(C(C)C)c5n4)cc3)CCOCC2)CC1`
satisfied

Report whether reported IC50 is lower than 0.009 µM (strictly) for `C=CC(=O)NCCNC1(c2ccc([C@H](C)Nc3ncc4ccc(=O)n(C(C)C)c4n3)cc2)CCOCC1`
not satisfied

Report whether reported IC50 is lower than 0.009 µM (strictly) for `C=CC(=O)N1CCN(C2(c3ccc([C@H](C)Nc4nc(N)c5ccc(=O)n(C(C)C)c5n4)cc3)CCOCC2)CC1`
satisfied
